Reference source for all entries: patent US20040116336A1

Molecular target: T1, APJ (orphan G protein-coupled receptor protein)
T1 chain: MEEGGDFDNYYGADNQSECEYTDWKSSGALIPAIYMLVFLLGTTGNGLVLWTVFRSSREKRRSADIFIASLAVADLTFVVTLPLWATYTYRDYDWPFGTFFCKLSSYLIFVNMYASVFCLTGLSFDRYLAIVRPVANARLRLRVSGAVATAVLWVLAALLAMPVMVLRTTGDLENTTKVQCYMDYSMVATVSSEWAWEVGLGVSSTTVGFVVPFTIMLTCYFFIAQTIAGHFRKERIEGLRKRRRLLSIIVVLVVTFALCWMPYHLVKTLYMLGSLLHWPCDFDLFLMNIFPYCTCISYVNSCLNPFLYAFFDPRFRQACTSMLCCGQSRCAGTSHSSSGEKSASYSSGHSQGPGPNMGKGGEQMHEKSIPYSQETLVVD
Assay: radioligand competition, compound of Ref. Ex. 2 as labelled ligand, CHO-A10 membrane fraction
MEASURED PARAMETER: log10 IC50 (log10 of the value in nM)
Values below are the log10 of the recorded IC50, with nM as the unit.

RPRLFARGPMF (also called Compound in Ex. 47) [Arg-Pro-Arg-Leu-Phe-Ala-Arg-Gly-Pro-Met-Phe]
0.26
RPRLSARGPM (also called Compound in Ex. 27) [Arg-Pro-Arg-Leu-Ser-Ala-Arg-Gly-Pro-Met]
-0.96
RPRLSARGPMPF (also called Compound in Ex. 24) [Arg-Pro-Arg-Leu-Ser-Ala-Arg-Gly-Pro-Met-Pro-Phe]
-1.24
RRKRPRLSHKGPMPF (also called Compound in Ex. 23) [Arg-Arg-Lys-Arg-Pro-Arg-Leu-Ser-His-Lys-Gly-Pro-Met-Pro-Phe]
-1.05
RPRLFARGPMPF (also called Compound in Ex. 31) [Arg-Pro-Arg-Leu-Phe-Ala-Arg-Gly-Pro-Met-Pro-Phe]
-0.57

Noted for RRQRPRLSARGPM (also called Compound in Ex. 18) [Arg-Arg-Gln-Arg-Pro-Arg-Leu-Ser-Ala-Arg-Gly-Pro-Met] : its log10 IC50 reads -1.64

Noted for RRARPRLSHKGPMPF (also called Compound in Ex. 25) [Arg-Arg-Ala-Arg-Pro-Arg-Leu-Ser-His-Lys-Gly-Pro-Met-Pro-Phe] : its log10 IC50 reads -1.17

Noted for RRFRPRLSHKGPMPF (also called Compound in Ex. 33) [Arg-Arg-Phe-Arg-Pro-Arg-Leu-Ser-His-Lys-Gly-Pro-Met-Pro-Phe] : its log10 IC50 reads -0.43

Noted for RRQRPRLSARGPMPF (also called Compound in Ex. 17) [Arg-Arg-Gln-Arg-Pro-Arg-Leu-Ser-Ala-Arg-Gly-Pro-Met-Pro-Phe] : its log10 IC50 reads -1.44
